// data source = patent US20230055705A1

assay: LogP by HPLC on reversed phase columns (EEC directive 79/831 Annex V.A8); assay type: physicochemical; conditions: reversed phase HPLC columns, given in the preparation examples; method not marked
Endpoint: chromatographic logP
API doc: respond with a numeric literal and nothing else, no unit.

Some solved entries appear below for comparison.
N#CCNC(=O)c1sc(Cl)c(Cl)c1Cl : 2.59
NC(=S)CNC(=O)c1sc(Cl)c(Cl)c1Cl : 2.53
CCSC(=O)C1(NC(=O)c2sc(Cl)c(Cl)c2Cl)CC1 : 4.01

Given item O=C(NC1(C(=O)O)CC1)c1sc(Cl)c(Cl)c1Cl , the value recorded as its chromatographic logP is 2.39

Given item O=C(O)CNC(=S)c1sc(Cl)c(Cl)c1Cl , the value recorded as its chromatographic logP is 3.17

Given item NC(=O)CNC(=O)c1sc(Cl)c(Cl)c1Cl , the value recorded as its chromatographic logP is 1.89

Given item COC(=O)CNC(=S)c1sc(Cl)c(Cl)c1Cl , the value recorded as its chromatographic logP is 4.05

###

This listing pairs compounds with measured LogP.
experiment: LogP by HPLC on reversed phase columns (EEC directive 79/831 Annex V.A8); format: physicochemical

Some solved entries appear below for comparison.
CN(C)C(=O)CNC(=O)c1sc(Cl)c(Cl)c1Cl [I.065] : 2.47^[a]
COC(=O)C1(NC(=O)c2sc(Cl)c(Cl)c2Cl)CCC(F)(F)CC1 [I.072] : 3.99^[a]
CN(C)C(=S)C1(NC(=O)c2sc(Cl)c(Cl)c2Cl)CC1 [I.115] : 3.20^[a]
CCOC(=O)C1(NC(=O)c2sc(Cl)c(Cl)c2Cl)CCCC1 [I.070] : 4.61^[a]
COC(=O)[C@H](CCC(=O)O)NC(=O)c1sc(Cl)c(Cl)c1Cl [I.075] : 2.57^[a]
CC1(C)SC(=O)C1NC(=O)c1sc(Cl)c(Cl)c1Cl (stereo not drawn) [I.024] : 4.04^[a]

Given item CCOC(=O)C1(C2(NC(=O)c3sc(Cl)c(Cl)c3Cl)CC2)CC1 [I.047] , the value recorded as its LogP is 4.83^[a]

Given item CCOC(=O)C1(CNC(=O)c2sc(Cl)c(Cl)c2Cl)CC1 [I.045] , the value recorded as its LogP is 4.27^[a]

Given item CCSC(=O)C(NC(=O)c1sc(Cl)c(Cl)c1Cl)C(C)C (stereo not drawn) [I.090] , the value recorded as its LogP is 5.45^[a]

Given item CC(C)OC(=O)C1(NC(=O)c2sc(Cl)c(Cl)c2Cl)CCC1 [I.150] , the value recorded as its LogP is 4.74^[a]

Given item CCOC(=O)C(NC(=O)c1sc(Cl)c(Cl)c1Cl)C(F)(F)F (stereo not drawn) [I.123] , the value recorded as its LogP is 4.47^[a]

Given item CCOC(=O)C(CCSC)NC(=O)c1sc(Cl)c(Cl)c1Cl (stereo not drawn) [I.084] , the value recorded as its LogP is 4.47^[a]

Given item COC(=O)C1(NC(=O)c2sc(Cl)c(Cl)c2Cl)CSC1 [I.080] , the value recorded as its LogP is 3.50^[a]

Given item O=C(NC1CCNC1=O)c1sc(Cl)c(Cl)c1Cl (stereo not drawn) [I.004] , the value recorded as its LogP is 1.98^[a]

Given item N#CC1(NC(=O)c2sc(Cl)c(Cl)c2Cl)CC1 [I.032] , the value recorded as its LogP is 2.88^[a]

Given item CCOC(=O)C1(NC(=O)c2sc(Cl)c(Cl)c2Cl)CCOCC1 [I.077] , the value recorded as its LogP is 3.39^[a]

###

This listing pairs compounds with measured chromatographic logP.
assay: LogP by HPLC on reversed phase columns (EEC directive 79/831 Annex V.A8); assay type: physicochemical; conditions: reversed phase HPLC columns, method [a]: LC-UV, in an acidic range, with 0.1% formic acid in water and acetonitrile as eluent (linear gradient from 10% to 95% acetonitrile)
API doc: respond with a numeric literal and nothing else, no unit.

Some solved entries appear below for comparison.
CCOC(=O)C(CC(N)=O)NC(=O)c1sc(Cl)c(Cl)c1Cl (centres unmarked) : 2.35
C[C@H](NC(=S)c1sc(Cl)c(Cl)c1Cl)C(=O)O : 3.5
NC(=S)CNC(=O)c1sc(Cl)c(Cl)c1Cl : 2.53
NC(=O)CNC(=O)c1sc(Cl)c(Cl)c1Cl : 1.89
COC(=O)C(CC(F)F)NC(=O)c1sc(Cl)c(Cl)c1Cl (centres unmarked) : 3.55

Given item CNC(=O)[C@@H](NC(=O)c1sc(Cl)c(Cl)c1Cl)C(C)C , the value recorded as its chromatographic logP is 2.97

Given item COC(=O)C(NC(=O)c1sc(Cl)c(Cl)c1Cl)C(=O)OC , the value recorded as its chromatographic logP is 3.31

Given item CCOC(=O)C(C)N(OC)C(=O)c1sc(Cl)c(Cl)c1Cl (centres unmarked) , the value recorded as its chromatographic logP is 4.15

###

system: Pseudomonas syringae pv. tomato; test: In vivo preventive test on Pseudomonas syringae pv. tomato (bacterial speck on tomato); details: 31 ppm of active ingredient, evaluated 5 or 6 days after inoculation, read-out: efficacy
Endpoint: pest or weed control at 31 ppm

Some solved entries appear below for comparison.
COC(=O)[C@H](C)NC(=S)c1sc(Cl)c(Cl)c1Cl : 80 to 89%
COC(=O)C(NC(=O)c1sc(Cl)c(Cl)c1Cl)c1cccs1 (stereo not shown) : 80 to 89%
NC(=S)CNC(=O)c1sc(Cl)c(Cl)c1Cl : 70 to 79%
COC(=O)CC[C@H](NC(=O)c1sc(Cl)c(Cl)c1Cl)C(=O)OC : 80 to 89%
CCOC(=O)C(CSC(C)=O)NC(=O)c1sc(Cl)c(Cl)c1Cl (stereo not shown) : 80 to 89%
NC(=O)CNC(=O)c1sc(Cl)c(Cl)c1Cl : 80 to 89%
C[C@H](NC(=O)c1sc(Cl)c(Cl)c1Cl)C(N)=O : 70 to 79%
CCNC(=O)[C@@H](NC(=O)c1sc(Cl)c(Cl)c1Cl)C(C)C : 90 to 100%

Given item CCSC(=O)[C@H](C)NC(=O)c1sc(Cl)c(Cl)c1Cl , the value recorded as its pest or weed control at 31 ppm is 90 to 100%

Given item COC(=O)C(NC(=O)c1sc(Cl)c(Cl)c1Cl)C(=O)OC , the value recorded as its pest or weed control at 31 ppm is 80 to 89%

###

test: LogP by HPLC on reversed phase columns (EEC directive 79/831 Annex V.A8); type: physicochemical
This listing pairs molecules with measured LogP.

Some solved entries appear below for comparison.
COC(=O)C1(NC(=O)c2sc(Cl)c(Cl)c2Cl)CC(F)(F)C1 [I.088] : 3.65^[a]
COC(=O)C(C)(Cc1ccccc1)NC(=O)c1sc(Cl)c(Cl)c1Cl (stereo not drawn) [I.122] : 5.11^[a]
N#CC1(NC(=O)c2sc(Cl)c(Cl)c2Cl)CCSCC1 [I.133] : 3.72^[a]

Given item COC(=O)C(NC(=O)c1sc(Cl)c(Cl)c1Cl)(C1CC1)C1CC1 [I.005] , the value recorded as its LogP is 4.51^[a]

Given item CC(C)(C)OC(=O)C1(NC(=O)c2sc(Cl)c(Cl)c2Cl)CCC1 [I.097] , the value recorded as its LogP is 5.28^[a]

Given item COC(=O)C(NC(=S)c1sc(Cl)c(Cl)c1Cl)C(C)C (stereo not drawn) [I.093] , the value recorded as its LogP is 5.61^[a]

Given item COC(=O)C1(NC(=O)c2sc(Cl)c(Cl)c2Cl)CCOC1 (stereo not drawn) [I.076] , the value recorded as its LogP is 3.00^[a]

Given item CCSC(=O)C(CC(C)C)NC(=O)c1sc(Cl)c(Cl)c1Cl (stereo not drawn) [I.039] , the value recorded as its LogP is 5.54^[a]

Given item O=C(NC1CCOC1=O)c1sc(Cl)c(Cl)c1Cl (stereo not drawn) [I.029] , the value recorded as its LogP is 2.48^[a]

Given item O=C(N[C@H]1CCSC1=O)c1sc(Cl)c(Cl)c1Cl [I.043] , the value recorded as its LogP is 3.24^[a]

Given item CONC(=O)C1(NC(=O)c2sc(Cl)c(Cl)c2Cl)CC1 [I.055] , the value recorded as its LogP is 2.14^[a]

Given item CCNC(=O)SC[C@H](NC(=O)c1sc(Cl)c(Cl)c1Cl)C(=O)OC [I.141] , the value recorded as its LogP is 3.36^[a]

Given item N#CC1(NC(=O)c2sc(Cl)c(Cl)c2Cl)CCC(C2CCCCC2)CC1 (stereo not drawn) [I.134] , the value recorded as its LogP is 6.41^[a]

Given item O=C(NC1CCCCNC1=O)c1sc(Cl)c(Cl)c1Cl (stereo not drawn) [I.125] , the value recorded as its LogP is 2.93^[a]
